Assay: yeast display, Sf9 membrane polyspecificity reagent, FACS + sequencing; frameworks hold sequencing errors
REPORTED_METRIC: polyreactivity (PSR sort gate)

The following sequences have reported results that may help.
QVQLVESGGGLVQAGGSLRLSCAASGSTFRRYAMGWYRQAPGNERELVAAITGSGGRTYYADSVKGRFTISRDNAKNTVYLQMNSLKPEDTAVYYCAARGTHSRRRYYYWGQGTQVTVSS = high polyreactivity
QVQLVESGGGLVQAGGSLRLSCAASGLIFTGNVMGWYRQAPGKERELVAAISRSGGRTYYADSVKGRFTISRDNAKNTVYLQMNSLKPEDTAVYYCNKVSPERVYYGSYFRYYYWGQGTQVTVSS = high polyreactivity
QVQLVESGGGLVQAGGSLRLSCAASGTIFAKYAMGWYRQAPGKERELVAAISRSSVRTRYADSVKGRFTISRDYAKNTVYLQMNSLKPEDTAVYYCNAYYRSYAYSHLDYWGQGTQVTVSS = high polyreactivity
QVQLVESGGGLVQAGGSLRLSCAASGRIYLTNAMGWYRQAPGKERELVAAITSGGSTYYADSVKGRFTISRDNAKNTVYLQMNSLKPEDTAVYYCNADTDRYWPYEYDYWGQGTQVTVSS = low polyreactivity
QVQLVESGGGLVQAGGRLRLSCAASGFIIVYYAAMGWYRQAPGKERELVAAISSRDDSTTYADSVKGRFTISRDNAKNTVYLQMNSLKPEDTAVYYCNADLGGFYYVYAYNYWGQGTQVTVSS = low polyreactivity

Inquiry: I'd like to know its polyreactivity (PSR sort gate). The sequence in question is "QVQLVESGGGLVQAGGSLRLSCAASGRTFLRYRMGWYRQAPGKERELVATISRSGGGTTYADSVKGRFTISRYNAKNTVYLQMNSLKPEDTAVYYCNRDQTYPYQYNRWVGQYKYDYWGQGTQVTVSS"
Reply text: low polyreactivity

Inquiry: Which measured polyreactivity (PSR sort gate) value corresponds to "QVQLVESGGGLVQAGGSLRLSCAATGRIFSLYAMGWYRQAPGKERELVASITRSGVRTYYADSVKGRFTISRDNAKNTVYLQMNSLKPEDTAVYYCAAPYLYSQGTYYRSSGMDYWGQGTQVTVSS" ?
Reply text: low polyreactivity

Inquiry: Query: polyreactivity (PSR sort gate); subject: "QFQLVDSGGGLVQAGGSLRLSCAASGSTFYWYTMGWYREAPGKERELVATITSVGRTNYADSVKGRFTISRDNAKNTVYLEMNSLKPEDTAVYYCAASKARWPRGGSKYYDWGQGTQVTVSS"
Reply text: high polyreactivity

Inquiry: I'd like to know its polyreactivity (PSR sort gate). The sequence in question is "QVQLVESGGVLVQAGGSLRLSCAASGSTFVRNAMGWYRQAPGKEWELVAAITGTGDSTYYADSVKGRFTISRDNAKNTVYLQMNSLKPEDTAVYYCAANSDAYRYWYDYWGQGTQVTVSS"
Reply text: low polyreactivity

Data credit: the nanobody polyreactivity screen of Harvey et al. (2022)
